The compounds listed here are annotated with their IC50.
- SYSTEM: recombinant human Lp-PLA2 (Homo sapiens)
- ASSAY_METHOD_TEXT: (1a) PED6 assay, recombinant human Lp-PLA2 (rhLp-PLA2)
- Format: biochemical
- CONDITION_NOTES: Examples 1-167 and 413-430 were tested here, one experiment or average of multiple experiments, read-out: rhLp-PLA2 (pIC50) (converted)

COMPOUND	IC50
Cn1cc(Oc2c(F)cc(COc3cc4n(c(=O)n3)C[C@H]3CCOCN43)cc2F)cn1	≤ 100 nM
O=c1nc(OCc2cc(F)c(Oc3ccnc(C(F)(F)F)c3)c(F)c2)cc2n1C[C@@H]1COCCN21	≤ 1 nM
CN1c2cc(OCc3cc(F)c(F)c(F)c3)nc(=O)n2CC12CCCC2	≤ 100 nM
O=c1nc(OCc2ccc(Oc3ccnc(C(F)(F)F)c3)c(F)c2)cc2n1CC1CCCCN21 (stereo not drawn) [Example E44]	≤ 1 nM
O=c1nc(OCc2cc(F)c(Oc3ccnc(C(F)(F)F)c3)c(F)c2)cc2n1C[C@@H]1CCCN21	≤ 1 nM
CCn1cc(Oc2c(F)cc(COc3cc4n(c(=O)n3)C[C@@H]3COCCN43)cc2F)cn1	≤ 100 nM
O=c1nc(OCc2cc(F)c(Oc3cccc(C(F)(F)F)c3)c(F)c2)cc2n1C[C@@H]1CCCN21	≤ 1 nM
Cc1ccc(Oc2c(F)cc(COc3cc4n(c(=O)n3)C[C@H]3COCN43)cc2F)cn1	≤ 1 nM
CCCn1cc(Oc2c(F)cc(COc3cc4n(c(=O)n3)C[C@@H]3COCCN43)cc2F)cn1	≤ 100 nM

* * *

- SYSTEM: Lp-PLA2 in human plasma (Homo sapiens, UniProt Q13093)
- Construct: from tissue; host or cells: pooled human plasma
- Sequence (Q13093 22-441): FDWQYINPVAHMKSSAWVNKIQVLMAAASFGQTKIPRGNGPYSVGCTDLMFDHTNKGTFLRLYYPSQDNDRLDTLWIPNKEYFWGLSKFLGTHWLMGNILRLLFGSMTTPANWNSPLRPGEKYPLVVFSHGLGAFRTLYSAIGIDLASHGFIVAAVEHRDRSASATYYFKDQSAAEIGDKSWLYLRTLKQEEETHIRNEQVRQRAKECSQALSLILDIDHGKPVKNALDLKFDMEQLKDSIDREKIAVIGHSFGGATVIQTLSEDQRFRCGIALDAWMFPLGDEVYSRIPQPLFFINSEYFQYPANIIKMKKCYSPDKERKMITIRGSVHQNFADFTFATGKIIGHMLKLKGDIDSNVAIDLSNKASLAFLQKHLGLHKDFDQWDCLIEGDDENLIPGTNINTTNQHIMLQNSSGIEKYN
- ASSAY_METHOD_TEXT: (3a) Lp-PLA2 human plasma Thio-PAF assay
- Format: biochemical
- CONDITION_NOTES: (3a) Thio-PAF assay, pooled human plasma; Examples 1-265 and 413-430 were tested here; read-out: pIC50 in the Lp-PLA2 human plasma assay (converted)
MEASURED_ENDPOINT: IC50

COMPOUND	RESULT_VALUE
CCn1cc(Oc2c(F)cc(COc3cc4n(c(=O)n3)C[C@H]3COCCN43)cc2F)cn1 [Example E115]	≤ 0.1 µM
N#Cc1cccc(COc2cc3n(c(=O)n2)C[C@@H]2CCCCN32)c1 [Example E33]	≤ 10 µM
Cn1cc(Oc2c(F)cc(COc3cc4n(c(=O)n3)C[C@H]3CCCN43)cc2F)cn1 [Example E66]	≤ 10 µM
CN1c2cc(OCc3cccc(F)c3F)nc(=O)n2CC12CCC2 [Example 420]	≤ 10 µM
O=c1nc(OCc2ccc(Cl)c(F)c2)cc2n1C[C@H]1COCN21 [Example E145]	≤ 10 µM
O=c1nc(OCc2cc(F)cc(F)c2)cc2n1C[C@H]1CCCN21 [Example E103]	≤ 10 µM
O=c1nc(OCCc2cccs2)cc2n1C[C@@H]1CCCCN21 [Example E36]	≤ 10 µM
O=c1nc(OCc2cc(F)c(F)cc2F)cc2n1C[C@H]1COCN21 [Example E173]	≤ 10 µM
O=c1nc(OCc2cccc(F)c2F)cc2n1C[C@@H]1CCCN21 [Example E212]	≤ 10 µM
O=c1nc(OCc2cc(F)c(F)cc2F)cc2n1C[C@H]1CCCCN21 [Example E225]	≤ 10 µM
O=c1nc(OCc2cc(F)c(Oc3ccnc(Cl)c3)c(F)c2)cc2n1CC1CCCCN21 (centres unmarked) [Example E26]	≤ 0.1 µM
